Molecular target: HLA-A*6801 (human)
Assay: competition with 125I-labeled probe peptide for purified HLA, gel filtration
Settings: remark: other sources report otherwise
reported property: IC50 (µM)
// units = µM; emit number, no label

Challenge: What value of IC50 has been recorded for this entry: VSIPWTHK (modifications not checked) [Peptide 26.0024 (HBV POL 50, VSIPWTHK)]
Response given: 20

Attribution: patent US20070059799A1
